System: HL-60(TB) leukemia
Assay: NCI-60 one-dose screen, 48 h (100 = growth as untreated, 0 = no growth, -100 = all killed)
Details: 10 µM unless noted
Compounds without any hit were thinned out: in the full panel of roughly 83,000, 20% have a hit.
Exam item: assign fulfilled to entries whose growth is below 50% and not fulfilled to entries at or above 50%. Note that a value of exactly 50% receives not fulfilled.

Compound	Qualitative Label
O=C1c2ccc3c4c(ccc(c24)C(=O)N1CCCNCc1ccccc1)C(=O)N(CCCNCc1ccccc1)C3=O	fulfilled
CC[n+]1c(/C=C/c2ccc(N3CCCC3)cc2)cccc1/C=C/c1ccc(N2CCCC2)cc1	fulfilled
COc1cc(/C=C/c2cc(/C=C/c3ccc(O)c(OC)c3)n(C(=O)Nc3ccc(Cl)cc3)n2)ccc1O	fulfilled
COc1cc(C2C3=C(COC3=O)N(CCO)c3cc4c(cc32)CCC4)cc(OC)c1O (configuration not stated)	fulfilled
COc1ccc(OC)c(CCn2cncc2-c2c[nH]c3cc(Br)ccc23)c1	fulfilled
COc1ccccc1C(OC(C)=O)OC(C)=O	not fulfilled
CCN(CC)CCCC(C)NCCCNc1cccc2cccnc12 (configuration not stated)	fulfilled
O=S(Nc1ccccc1)c1ccc(Cl)cc1 (configuration not stated)	not fulfilled
CCCC#CCN(CC)CC	not fulfilled
COc1cc(NCCCN=C(N)NC(N)=NC(C)C)c2ncccc2c1	not fulfilled
CC(C)CCNCC(C)(C)O	not fulfilled
O=c1ccn(C2CC(O)C(O)C(CO)O2)c(=O)[nH]1 (configuration not stated)	not fulfilled
Cc1nc2ccccc2c(/C=C/c2ccc(F)cc2)c1C(=O)/C=C/c1ccccc1	fulfilled
COc1ccc2c(c1)N(Cc1ccc(Cl)cc1)CCC2N1CCCC1=O (configuration not stated)	not fulfilled
O=C(Nc1ccc(Cl)cc1)c1cc2cc(F)ccc2cc1O	fulfilled
CC(C)NC(=O)N1C(=O)CCC1NNC(=O)c1ccc([N+](=O)[O-])cc1 (configuration not stated)	not fulfilled
COc1ccc(S(=O)(=O)Nc2c(/C=C\c3cc(OC)c(OC)c(OC)c3)ccc(OC)c2O)cc1	fulfilled
CC1(C)[C@@H](O[C@@H]2OC[C@@H](O[C@@H]3O[C@H](CO)[C@@H](O)[C@H](O)[C@H]3O[C@@H]3OC[C@@H](O)[C@H](O)[C@H]3O)[C@H](O)[C@H]2O[C@@H]2O[C@H](CO)[C@@H](O)[C@H](O)[C@H]2O)CC[C@]2(C)[C@H]3CC[C@]45OC[C@@]6(CC[C@](C)(C=O)C[C@H]64)[C@H](O)C[C@@]5(C)[C@]3(C)CC[C@@H]12	fulfilled
O=C(CCl)NCNC(=O)CCl	not fulfilled
C[C@]12CC[C@@H]3c4cc(OC(F)F)c(OS(N)(=O)=O)cc4CC[C@H]3[C@@H]1CC[C@@H]2OS(N)(=O)=O	fulfilled
COC(=O)c1c2c(c(C)[n+]([O-])c1C)C(=O)C(NCc1ccc(F)c(Cl)c1)=CC2=O	fulfilled
Cc1cn(C2CCCCC2)c(=O)[nH]c1=O	not fulfilled

----------
Test system: HL-60(TB) leukemia
Assay: NCI-60 one-dose screen, 48 h
Details: 10 µM unless noted
Method: Growth inhibition of the HL-60(TB) human tumor cell line is measured as a screen for anti-cancer activity. Cells are grown in 96 well plates and exposed to the test compound for 48 hours. Compounds are tested at a single concentration, which is 10^-5 M for most compounds. The reported endpoint is percent growth (GI% or GIPRCNT), where numbers from 0 - 100% represent growth inhibition, and numbers from -100% - 0 represent cell death. For example, a value of 40 represents 60% growth inhibition. […]
Compounds without any hit were thinned out: in the full panel of roughly 83,000, 20% have a hit. Active and inactive are the calls of the source. Rule for the calls: active = growth percent below 10; inactive = the rest.
Classes used: yes (active), no (inactive)

                                   molecule  qualitative_label
0      CCN(CC)c1cc2oc3cc(N)cc(=N)c-3nc2cc1C                yes
1  O=C1C2=C(Nc3cc([N+](=O)[O-])ccc3N2)OC1c1c2ccccc2cc2ccccc12 (stereo not given)                 no
2  CC(C)CN1CC(C(=O)Nc2ccc3c(c2)-c2ccccc2C3)CC1=O (stereo not given)                 no
3  COc1cc2cc(Oc3ccc(NC(=O)Nc4ccc(Cl)c(C(F)(F)F)c4)cc3)c(C)nc2cc1OCCN1CCOCC1                 no
4      CN(C)C(=O)c1ccc(SC(=S)NCc2ccccc2)cc1                yes

----------
System: SNB-19 CNS
Experiment: NCI-60 one-dose screen, 48 h (100 = growth as untreated, 0 = no growth, -100 = all killed)
Conditions: 10 µM unless noted
The panel holds about 83,000 compounds, 20% with a hit somewhere; the sample as a whole holds those more often. Calls of active or inactive are those of the source. The calls were made as follows: active = growth percent below 10; inactive = the rest.
Measurement Name: growth

>>> df
                                   molecule  study_target    reported_value
0         C/C(=N/OC(=O)N(C)C)c1ccc(Cl)cc1Cl    SNB-19 CNS   103% (inactive)
1  CC(=O)O[C@H]1CCC2(C)C(=CCC3C2CCC2(C)/C(=N/OC(=O)c4ccc(N(CCCl)CCCl)cc4)CCC32)C1 (stereo not given in full)    SNB-19 CNS  37.7% (inactive)
2    O=[N+]([O-])c1ccc(F)c([N+](=O)[O-])c1F    SNB-19 CNS   115% (inactive)
3  O=c1[nH]c2cc(Cl)ccc2n1C1CCN(CCCC(c2ccc(F)cc2)c2ccc(F)cc2)CC1    SNB-19 CNS  73.8% (inactive)
4                S=P(NC1CCCCC1)(N1CC1)N1CC1    SNB-19 CNS   113% (inactive)

----------
Test system: RXF 393 renal
Assay: NCI-60 one-dose screen, 48 h (100 = growth as untreated, 0 = no growth, -100 = all killed)
Settings: 10 µM unless noted
The panel holds about 83,000 compounds, 20% with a hit somewhere; the sample as a whole holds those more often.
Measurement Name: growth (%)

>>> print(df.to_string())
                                   compound   study_target  reported_value
0  CCC(/C=C(C)/C=C/C(=O)c1c(O)c(-c2ccc(O)cc2)c[nH]c1=O)CO (stereo not given)  RXF 393 renal             104
1  O=c1[nH]c2cc(Cl)ccc2n1C1CCN(CCCC(c2ccc(F)cc2)c2ccc(F)cc2)CC1  RXF 393 renal            30.5
2  O=CN1N=C(c2ccc3c(c2)OCO3)CC1c1sc(N(CCCl)CCCl)nc1Cl (stereo not given)  RXF 393 renal             109
3  O=C1NC(=O)C(CN2C(=O)C3(c4ccccc42)[C@H](Cl)C(=O)N3c2ccccc2)C(=O)N1 (stereo not given in full)  RXF 393 renal            65.5
4  C[CH2][Sn]([CH2]C)([CH2]C)[NH]S(=O)(=O)c1ccc(C)cc1  RXF 393 renal             123
5  COc1ccc(C(=O)c2ccc([As]=O)cc2)cc1 (stereo not given)  RXF 393 renal           -99.6
6  CCOC(=O)/C=C(\C)Nc1ccc(N/C(C)=C/C(=O)OCC)c2c1Oc1ccccc1O2  RXF 393 renal           0.357
7  CC1(C)CC2(CC(C)(C)c3cc(O)c(O)cc32)c2cc(O)c(O)cc21  RXF 393 renal            85.8
8                S=P(N1CCCCCC1)(N1CC1)N1CC1  RXF 393 renal             124
9         Nc1c(Br)cc2c3c(cccc13)-c1ccccc1-2  RXF 393 renal            80.2
